- target system: T1, human podocalyxin (human, UniProt O00592 23-558)
- T1 construct: also called hPodo; hPodocalyxin
- T1 sequence: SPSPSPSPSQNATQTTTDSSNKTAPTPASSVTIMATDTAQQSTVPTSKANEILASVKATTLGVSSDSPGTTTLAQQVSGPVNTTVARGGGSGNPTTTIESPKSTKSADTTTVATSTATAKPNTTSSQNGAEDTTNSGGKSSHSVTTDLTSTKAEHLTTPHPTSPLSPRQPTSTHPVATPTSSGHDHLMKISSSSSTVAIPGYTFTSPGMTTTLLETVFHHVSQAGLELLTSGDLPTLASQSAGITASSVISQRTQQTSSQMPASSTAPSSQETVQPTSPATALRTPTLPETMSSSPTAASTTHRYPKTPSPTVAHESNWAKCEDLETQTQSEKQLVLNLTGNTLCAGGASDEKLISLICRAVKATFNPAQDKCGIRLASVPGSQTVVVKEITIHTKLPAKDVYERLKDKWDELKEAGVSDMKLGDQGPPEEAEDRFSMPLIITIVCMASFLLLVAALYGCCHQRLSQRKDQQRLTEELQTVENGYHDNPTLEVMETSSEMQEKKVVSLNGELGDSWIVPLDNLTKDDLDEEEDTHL
- experiment description: flow cytometry, supernatant 1:125, hPodo/MDA-MB-231 transient transfectants
outcome measure: flow cytometry fluorescence (name not given)

[[record]]
binder = "Rb/Hu Podo83 (Podo83 rabbit VH and VL, human IgG1 chimera) (antibody, V domains shown, Rabbit variable domains cloned into human IgG1 and human Ig kappa constant region constructs (pTT5/IgG1, pTT5/Igk); also called anti-PODO; Ab-1) VH: QSLAESGGRLVTPGTPLTLTCTASGIDLSSYAMGWVRQAPGKGLEYIGFIYASGSIFYASWAKGRFTISKTSSTTVDLKMTSLTTEDTATYFCARAGYYFGGNYDLNLWGQGTLVTVSS VL: DIVLTQTPASVEVAVGGTVTIKCQASQSISNYLAWYQRKPGQPPRLLIYRASTLASGVSSRFKGSGSGTQFTLTISGVECADAATYYCQQGYVSNNLDNIFGGGTEVVVK"
assay_result = 58500

[[record]]
binder = "Rabbit Podo 83 (Parental rabbit antibody) (antibody, V domains shown, Rabbit constant regions; also called Rb Podo 83 (Rb Constant Region); rabbit Podo-83 (Ab-1)) VH: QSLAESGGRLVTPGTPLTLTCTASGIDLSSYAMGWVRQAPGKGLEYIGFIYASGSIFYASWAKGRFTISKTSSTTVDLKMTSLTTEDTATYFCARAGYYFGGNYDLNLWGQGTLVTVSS VL: DIVLTQTPASVEVAVGGTVTIKCQASQSISNYLAWYQRKPGQPPRLLIYRASTLASGVSSRFKGSGSGTQFTLTISGVECADAATYYCQQGYVSNNLDNIFGGGTEVVVK"
assay_result = 24100

[[record]]
binder = "huPodo 83 2:1 (humanized anti-podocalyxin antibody 83, version 2) (antibody, V domains shown, Cloned into pTT5 plasmids with human IgG heavy chain and human Ig kappa constant regions) VH: EVQLVESGGGLVQPGGSLRLSCAASGIDLSSYAMGWVRQAPGKGLEWVSFIYASGSIFYASWAKGRFTISRDNSNTLYLQMNSLRAEDTAVYYCARAGYYFGGNYDLNLWGQGTLVTVSS VL: DIQMTQSPSSLSASVGDRVTITCQASQSISNYLAWYQQKPGKVPKLLIYRASTLASGVPSRFSGSGSGTDFTLTISSLQPEDVATYYCQQGYVSNNLDNIFGGGTEVVVK"
assay_result = 37700

[[record]]
binder = "Rb VH, Vk 1:1 (Podo 83 rabbit VH, human CH1-CH3, human Ck, and humanized Vk) (antibody, V domains shown, Human CH1-CH3 and human Ck) VH: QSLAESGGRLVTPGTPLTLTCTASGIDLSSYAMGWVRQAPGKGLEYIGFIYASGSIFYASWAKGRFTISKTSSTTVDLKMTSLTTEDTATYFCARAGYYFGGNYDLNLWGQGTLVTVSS VL: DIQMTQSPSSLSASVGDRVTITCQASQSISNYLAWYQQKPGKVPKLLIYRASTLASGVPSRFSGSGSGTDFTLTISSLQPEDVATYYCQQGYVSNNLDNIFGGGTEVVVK"
assay_result = 74500

[[record]]
binder = "huPodo 83 1:1 (humanized anti-podocalyxin antibody 83, version 1) (antibody, V domains shown, Cloned into pTT5 plasmids with human IgG heavy chain and human Ig kappa constant regions) VH: EVQLVESGGGLVQPGGSLRLSCAASGIDLSSYAMGWVRQAPGKGLEWVSFIYASGSIFYASWAKGRFTISRDNSKNTLYLQMNSLRAEDTAVYYCARAGYYFGGNYDLNLWGQGTLVTVSS VL: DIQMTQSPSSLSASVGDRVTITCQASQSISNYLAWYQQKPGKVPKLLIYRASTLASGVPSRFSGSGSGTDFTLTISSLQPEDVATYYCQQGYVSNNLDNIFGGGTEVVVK"
assay_result = 61600

